Reference source for all entries: patent US11518758B2

Test system: phospho-Serine 318 ATG13 (pATG13) in A375 cells
Assay: pATG13 levels of mutant BRAF A375 cells after treatment with ULK inhibitors in combination with trametinib (ELISA)
Type: cell-based, human
pIC50: −log10 of the molar value.
Answer each item with its documented pIC50.

# pIC50 of Cc1nn([C@@H]2CCN(C)C2)cc1Nc1ncc(C(F)(F)F)c(NCCCN2CCCCC2=O)n1 = 7.00 to 8.00

# pIC50 of Cc1nn(C2CCN(C)CC2)cc1Nc1ncc(C(F)(F)F)c(NCCCN2CCOCCC2=O)n1 = 7.00 to 8.00

# pIC50 of CCc1nn(C2CCN(C)CC2)cc1Nc1ncc(Br)c(NCCCN2CCCCC2=O)n1 = 6.52 to 7.00

# pIC50 of Cc1nn([C@H]2CCN(C)C2)cc1Nc1ncc(Br)c(NCCCN2CCCCC2=O)n1 = 7.00 to 8.00

# pIC50 of Cc1nn(C2CCN(C)CC2)cc1Nc1ncc(C(F)(F)F)c(NCCCN2CCCCC2=O)n1 = 7.00 to 8.00

# pIC50 of Cc1nn(C2CCN(C(C)C)CC2)cc1Nc1ncc(C(F)(F)F)c(NCCCN2CCCCC2=O)n1 = 7.00 to 8.00

# pIC50 of Cc1nn(C2CCN(C(C)C)CC2)cc1Nc1ncc(C(F)(F)F)c(NCCCN2CCCOC2=O)n1 = 6.52 to 7.00

---

Target: ULK1 kinase (Homo sapiens, UniProt O75385, E37A/K38A)
Construct: (residues 1-283; ID NO: 2)
Sequence (O75385 1-283 E37A/K38A): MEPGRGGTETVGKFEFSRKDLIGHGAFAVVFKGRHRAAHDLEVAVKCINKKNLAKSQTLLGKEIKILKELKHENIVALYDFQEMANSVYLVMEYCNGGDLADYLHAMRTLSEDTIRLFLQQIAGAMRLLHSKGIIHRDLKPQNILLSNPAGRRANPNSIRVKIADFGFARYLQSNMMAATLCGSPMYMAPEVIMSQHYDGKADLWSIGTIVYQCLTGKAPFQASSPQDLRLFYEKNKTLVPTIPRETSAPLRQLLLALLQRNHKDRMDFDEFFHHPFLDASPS
Assay: Biochemical assay for ULK1.3 (coupled pyruvate kinase/lactate dehydrogenase assay)
Details: 0.1 nM ULK1 (from Beryllium), peptide substrate, 1 mM ATP
OBSERVATION_TYPE: IC50

Item Cc1nn(CCN(C)C)cc1Nc1ncc(C2CC2)c(NCCCN2CCOCCC2=O)n1 ; assay system ULK1 kinase (Homo sapiens, UniProt O75385, E37A/K38A); IC50 reported as > 500 nM

Item Cc1nn(CCN(C)C)cc1Nc1ncc(Cl)c(NCCCN2CCCOCC2=O)n1 ; assay system ULK1 kinase (Homo sapiens, UniProt O75385, E37A/K38A); IC50 reported as > 500 nM

Item CCc1nn(C2CCN(C(C)C)CC2)cc1Nc1ncc(C2CC2)c(NCCCN2CCOCC2=O)n1 ; assay system ULK1 kinase (Homo sapiens, UniProt O75385, E37A/K38A); IC50 reported as > 500 nM

Item Cc1nn(CCN(C)C)cc1Nc1ncc(Br)c(NCCCN2CCCOCC2=O)n1 ; assay system ULK1 kinase (Homo sapiens, UniProt O75385, E37A/K38A); IC50 reported as 100 to 500 nM

Item Cc1nn(C(C)(C)C(N)=O)cc1Nc1ncc(C(F)(F)F)c(NCCCN2CCOCCC2=O)n1 ; assay system ULK1 kinase (Homo sapiens, UniProt O75385, E37A/K38A); IC50 reported as 100 to 500 nM

Item Cc1nn(CCCN2CCOCC2)cc1Nc1ncc(C2CC2)c(NCCCN2CCOCCC2=O)n1 ; assay system ULK1 kinase (Homo sapiens, UniProt O75385, E37A/K38A); IC50 reported as > 500 nM

Item Cc1nn(CCCN2CCOCC2)cc1Nc1ncc(Br)c(NCCCN2CCCOCC2=O)n1 ; assay system ULK1 kinase (Homo sapiens, UniProt O75385, E37A/K38A); IC50 reported as 100 to 500 nM

Item Cc1nn(C2CCN(C(C)C)CC2)cc1Nc1ncc(Cl)c(NCCCN2CCOCCC2=O)n1 ; assay system ULK1 kinase (Homo sapiens, UniProt O75385, E37A/K38A); IC50 reported as 100 to 500 nM
